test target: ACE (Oryctolagus cuniculus, UniProt P12822)
test description: ACE pre-incubation of milk hydrolysate peptide libraries, stable-isotope dimethyl labeling and LC-MS/MS (D/H ratio)
Assay type: in vitro ADME, rabbit
Design: ACE (EC 3.4.15.1, 1 unit) from rabbit lungs; purchased Sigma Chemical Co. (St. Louis, MO, USA); host or cells: rabbit lungs (tissue-derived enzyme)
measurement parameters: milk hydrolysate peptide library (<3 kDa); ACE-treated (0.05 mU/μL ACE, borate buffer, 37 °C, 3 h: 1.5 h static + 1.5 h 200 rpm; D-labeled) versus untreated (H-labeled) peptide; intensity ratio in LC-MS; <1 = hydrolysed by ACE
No end group written: not given here.
So basically: D/H Ratio at 0.5 or higher? That is Criterion met. Lower than 0.5? That is Criterion not met.

Worked examples follow.
substance	test target	group label
VAPFPEVFG [VAPFPEVFG]	ACE (Oryctolagus cuniculus, UniProt P12822)	Criterion met
ALPMHIR [ALPMHIR]	ACE (Oryctolagus cuniculus, UniProt P12822)	Criterion not met
INNQFLPYPYY [INNQFLPYPYY]	ACE (Oryctolagus cuniculus, UniProt P12822)	Criterion not met
FALPQYLK [FALPQYLK]	ACE (Oryctolagus cuniculus, UniProt P12822)	Criterion met

-- ask API: above_or_equal(metric=D/H Ratio, cutoff=0.5) for item HQGLPQEVLNENLLR [HQGLPQEVLNENLLR]
-- reply Criterion met

-- ask Determine whether this substance has D/H Ratio no lower than 0.5: QLDAYPSGAW [QLDAYPSGAW]
-- reply Criterion not met

-- ask Can AVPYPQR [AVPYPQR] be said to have D/H Ratio at or above 0.5?
-- reply Criterion not met

###

test target: ACE (Oryctolagus cuniculus, UniProt P12822)
Sequence (P12822 34-1310): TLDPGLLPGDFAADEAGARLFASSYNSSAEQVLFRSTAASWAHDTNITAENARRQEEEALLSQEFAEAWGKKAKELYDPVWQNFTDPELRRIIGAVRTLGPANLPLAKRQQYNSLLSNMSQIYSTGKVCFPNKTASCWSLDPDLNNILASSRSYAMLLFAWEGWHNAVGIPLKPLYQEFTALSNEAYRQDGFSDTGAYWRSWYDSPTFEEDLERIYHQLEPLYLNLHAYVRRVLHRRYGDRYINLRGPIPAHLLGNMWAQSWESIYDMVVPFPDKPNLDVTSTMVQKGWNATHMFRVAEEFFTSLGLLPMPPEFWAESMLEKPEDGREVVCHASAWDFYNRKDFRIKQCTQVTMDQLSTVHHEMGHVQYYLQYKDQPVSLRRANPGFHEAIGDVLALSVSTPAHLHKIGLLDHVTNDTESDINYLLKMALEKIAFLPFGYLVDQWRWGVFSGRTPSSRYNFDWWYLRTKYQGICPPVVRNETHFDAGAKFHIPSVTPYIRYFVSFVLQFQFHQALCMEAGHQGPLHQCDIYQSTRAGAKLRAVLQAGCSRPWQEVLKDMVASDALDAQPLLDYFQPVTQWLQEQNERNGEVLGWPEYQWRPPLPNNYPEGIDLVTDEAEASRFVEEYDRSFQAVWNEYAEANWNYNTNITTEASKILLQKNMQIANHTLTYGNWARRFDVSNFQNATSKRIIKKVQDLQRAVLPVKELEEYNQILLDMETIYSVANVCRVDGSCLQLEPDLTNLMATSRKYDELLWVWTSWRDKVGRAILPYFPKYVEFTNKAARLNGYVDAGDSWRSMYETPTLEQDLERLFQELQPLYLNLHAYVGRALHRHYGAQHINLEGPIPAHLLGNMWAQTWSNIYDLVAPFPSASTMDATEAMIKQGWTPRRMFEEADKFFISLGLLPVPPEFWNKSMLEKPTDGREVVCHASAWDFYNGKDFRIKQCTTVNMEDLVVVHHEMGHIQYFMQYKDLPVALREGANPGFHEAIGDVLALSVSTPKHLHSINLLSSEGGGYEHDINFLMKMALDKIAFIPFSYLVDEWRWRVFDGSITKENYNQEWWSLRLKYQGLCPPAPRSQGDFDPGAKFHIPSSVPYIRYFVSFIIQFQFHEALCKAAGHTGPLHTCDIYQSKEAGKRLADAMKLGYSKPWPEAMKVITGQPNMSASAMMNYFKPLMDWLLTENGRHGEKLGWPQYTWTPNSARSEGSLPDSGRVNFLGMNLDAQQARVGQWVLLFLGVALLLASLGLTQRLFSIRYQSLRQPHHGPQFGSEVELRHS
test description: ACE pre-incubation of milk hydrolysate peptide libraries, stable-isotope dimethyl labeling and LC-MS/MS (D/H ratio)
Format: in vitro ADME, rabbit
Design: ACE (EC 3.4.15.1, 1 unit) from rabbit lungs; purchased Sigma Chemical Co. (St. Louis, MO, USA); host or cells: rabbit lungs (tissue-derived enzyme)
measurement parameters: milk hydrolysate peptide library (<3 kDa); ACE-treated (0.05 mU/μL ACE, borate buffer, 37 °C, 3 h: 1.5 h static + 1.5 h 200 rpm; D-labeled) versus untreated (H-labeled) peptide; intensity ratio in LC-MS; <1 = hydrolysed by ACE
No end group written: not given here.
measurement name: D/H Ratio

-- ask Consider the substance HLPLPLLQSW [HW-10] . State its measured D/H Ratio.
-- reply 0.12

-- ask Please report D/H Ratio for the following substance: KVIPYVRY [KVIPYVRY]
-- reply 0.66

-- ask Tell me D/H Ratio reported for YPVEPFTESQSL [YPVEPFTESQSL]
-- reply 0.76

-- ask Provide one value: measured D/H Ratio of VVPPFLQPEVM [VVPPFLQPEVM]
-- reply 0.80

-- ask Find the measured D/H Ratio of AYFYPELFR [AR-9] and report it.
-- reply 0.19

Recorded values, source paper PMC9965520.
